Target: Cannabinoid receptor 1 (Homo sapiens)
Sequence (P21554 whole entry): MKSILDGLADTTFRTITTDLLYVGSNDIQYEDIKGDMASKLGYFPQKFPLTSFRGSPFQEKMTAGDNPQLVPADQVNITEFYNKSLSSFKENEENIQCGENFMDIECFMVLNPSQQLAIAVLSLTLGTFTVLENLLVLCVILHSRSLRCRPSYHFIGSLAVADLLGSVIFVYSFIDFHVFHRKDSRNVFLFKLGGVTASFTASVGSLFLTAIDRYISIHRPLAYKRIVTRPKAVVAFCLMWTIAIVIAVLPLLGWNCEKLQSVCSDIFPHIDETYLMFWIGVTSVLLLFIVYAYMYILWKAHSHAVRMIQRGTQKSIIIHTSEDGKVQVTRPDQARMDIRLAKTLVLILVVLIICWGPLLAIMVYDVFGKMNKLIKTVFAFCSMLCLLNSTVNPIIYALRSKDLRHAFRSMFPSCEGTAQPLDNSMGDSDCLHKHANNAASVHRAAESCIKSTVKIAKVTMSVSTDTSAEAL
measurement_label: pKi
Answers are plain numbers, as −log10 of the molar value.

Case `O=C(NCc1ncc(C(F)(F)F)cc1Cl)c1ccc2c(c1)C1(CCS(=O)(=O)CC1)[C@H](C1CC1)N2S(=O)(=O)c1ccc(F)cc1` , Cannabinoid receptor 1 (Homo sapiens), pKi recorded as 5.59

* * *

Molecular target: L-type calcium channel, dihydropyridine site (Cav1.2 alpha-1C) (Homo sapiens, UniProt Q13936)
Sequence (Q13936 whole entry): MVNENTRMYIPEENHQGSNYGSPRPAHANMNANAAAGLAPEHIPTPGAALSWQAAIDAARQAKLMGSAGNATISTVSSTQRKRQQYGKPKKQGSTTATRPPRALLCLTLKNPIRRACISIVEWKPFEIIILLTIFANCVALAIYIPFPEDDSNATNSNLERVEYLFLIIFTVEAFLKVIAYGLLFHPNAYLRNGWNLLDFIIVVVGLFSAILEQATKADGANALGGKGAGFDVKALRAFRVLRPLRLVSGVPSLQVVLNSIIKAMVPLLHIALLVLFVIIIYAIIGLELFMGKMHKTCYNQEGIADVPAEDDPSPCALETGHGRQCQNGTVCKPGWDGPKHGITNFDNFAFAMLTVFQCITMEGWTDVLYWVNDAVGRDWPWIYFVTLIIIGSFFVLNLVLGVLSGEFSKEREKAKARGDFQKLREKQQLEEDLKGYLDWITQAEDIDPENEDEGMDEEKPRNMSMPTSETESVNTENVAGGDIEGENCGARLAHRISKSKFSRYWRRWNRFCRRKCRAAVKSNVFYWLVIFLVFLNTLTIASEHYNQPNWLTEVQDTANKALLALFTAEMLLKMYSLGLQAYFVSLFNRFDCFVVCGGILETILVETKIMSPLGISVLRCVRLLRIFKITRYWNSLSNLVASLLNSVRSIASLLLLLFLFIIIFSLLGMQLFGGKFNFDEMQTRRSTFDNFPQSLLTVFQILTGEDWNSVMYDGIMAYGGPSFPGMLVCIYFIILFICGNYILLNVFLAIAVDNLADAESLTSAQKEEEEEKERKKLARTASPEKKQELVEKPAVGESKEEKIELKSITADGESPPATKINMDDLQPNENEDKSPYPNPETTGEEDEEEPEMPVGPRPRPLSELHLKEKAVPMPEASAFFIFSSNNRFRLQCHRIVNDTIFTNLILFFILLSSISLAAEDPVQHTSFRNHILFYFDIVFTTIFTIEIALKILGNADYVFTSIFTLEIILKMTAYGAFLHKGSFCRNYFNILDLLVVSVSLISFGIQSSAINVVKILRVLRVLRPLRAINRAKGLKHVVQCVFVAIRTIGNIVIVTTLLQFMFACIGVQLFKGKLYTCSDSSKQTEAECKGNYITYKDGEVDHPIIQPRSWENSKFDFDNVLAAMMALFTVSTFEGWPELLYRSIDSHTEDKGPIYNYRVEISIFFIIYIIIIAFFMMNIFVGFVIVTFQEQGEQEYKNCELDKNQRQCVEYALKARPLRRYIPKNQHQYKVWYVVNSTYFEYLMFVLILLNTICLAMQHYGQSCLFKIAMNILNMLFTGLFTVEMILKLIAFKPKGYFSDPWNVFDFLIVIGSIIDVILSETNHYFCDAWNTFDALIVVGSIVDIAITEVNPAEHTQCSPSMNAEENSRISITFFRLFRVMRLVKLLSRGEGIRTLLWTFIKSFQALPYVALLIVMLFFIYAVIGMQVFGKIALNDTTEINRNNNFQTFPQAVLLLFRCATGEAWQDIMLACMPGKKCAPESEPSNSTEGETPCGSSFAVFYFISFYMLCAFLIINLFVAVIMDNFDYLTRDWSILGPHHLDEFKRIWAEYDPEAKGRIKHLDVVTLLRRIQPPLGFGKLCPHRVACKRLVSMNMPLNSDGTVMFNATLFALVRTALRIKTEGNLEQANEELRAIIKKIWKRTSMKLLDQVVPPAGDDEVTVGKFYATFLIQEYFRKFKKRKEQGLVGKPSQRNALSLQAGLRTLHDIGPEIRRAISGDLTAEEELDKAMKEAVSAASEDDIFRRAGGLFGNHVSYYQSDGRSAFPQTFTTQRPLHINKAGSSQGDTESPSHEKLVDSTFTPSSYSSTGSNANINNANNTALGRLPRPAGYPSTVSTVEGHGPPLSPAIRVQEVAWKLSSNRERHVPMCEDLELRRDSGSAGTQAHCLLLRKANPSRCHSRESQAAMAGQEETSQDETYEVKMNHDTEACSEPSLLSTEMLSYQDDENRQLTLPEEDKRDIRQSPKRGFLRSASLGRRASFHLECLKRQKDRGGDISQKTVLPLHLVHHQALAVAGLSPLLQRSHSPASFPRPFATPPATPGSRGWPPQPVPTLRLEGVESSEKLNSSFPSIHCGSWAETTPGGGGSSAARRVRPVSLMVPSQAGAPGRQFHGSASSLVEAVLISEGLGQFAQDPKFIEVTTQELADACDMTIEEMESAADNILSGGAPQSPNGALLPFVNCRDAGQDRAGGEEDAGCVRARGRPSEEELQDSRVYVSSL
Assay: Inhibition of Calcium Channel L-Type, Dihydropyridine at 10 µM in the Eurofins-Panlabs radioligand binding assay (Eurofins_assay_214600)
Set-up: ligand concentration 0.1 nM, non-specific ligand with concentration 1 µM Nitrendipine, incubation time 90 min, incubation temperature 25 °C
Settings: Wistar, rat, rat cerebral cortex preparation, probe [3H] Nitrendipine, 0.1 nM; compound concentration 10 uM; target entry is the homologue from another species
measurement_label: inhibition at 90 min, 10 µM

Memo: `O=C(NCc1ncc(C(F)(F)F)cc1Cl)c1ccc2c(c1)C1(CCS(=O)(=O)CC1)[C@H](C1CC1)N2S(=O)(=O)c1ccc(F)cc1` , reported inhibition at 90 min, 10 µM: 26% (not active)

* * *

Target: CYP2D6 (Homo sapiens, UniProt P10635)
Sequence (P10635 whole entry): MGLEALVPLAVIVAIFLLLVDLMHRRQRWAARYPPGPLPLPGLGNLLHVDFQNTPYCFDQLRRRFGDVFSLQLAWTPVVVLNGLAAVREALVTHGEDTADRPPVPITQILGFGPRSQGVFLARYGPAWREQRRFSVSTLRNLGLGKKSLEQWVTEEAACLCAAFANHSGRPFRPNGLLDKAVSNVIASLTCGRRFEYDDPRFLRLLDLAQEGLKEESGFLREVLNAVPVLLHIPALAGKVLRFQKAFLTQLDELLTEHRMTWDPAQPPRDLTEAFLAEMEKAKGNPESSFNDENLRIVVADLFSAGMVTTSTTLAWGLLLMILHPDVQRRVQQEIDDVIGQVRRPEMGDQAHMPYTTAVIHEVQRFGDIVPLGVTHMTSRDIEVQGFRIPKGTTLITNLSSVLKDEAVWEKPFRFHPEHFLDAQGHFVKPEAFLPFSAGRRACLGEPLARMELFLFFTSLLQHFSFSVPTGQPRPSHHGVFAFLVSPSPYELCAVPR
Experiment: CYP450, 2D6 Eurofins-Panlabs enzyme assay
Conditions: compound concentration 10 uM
measurement_label: inhibition at 10 µM

Memo: `O=C(NCc1ncc(C(F)(F)F)cc1Cl)c1ccc2c(c1)C1(CCS(=O)(=O)CC1)[C@H](C1CC1)N2S(=O)(=O)c1ccc(F)cc1` , reported inhibition at 10 µM: 4% (not active)

* * *

Target: CYP2C9 (Homo sapiens)
Sequence (P11712 whole entry): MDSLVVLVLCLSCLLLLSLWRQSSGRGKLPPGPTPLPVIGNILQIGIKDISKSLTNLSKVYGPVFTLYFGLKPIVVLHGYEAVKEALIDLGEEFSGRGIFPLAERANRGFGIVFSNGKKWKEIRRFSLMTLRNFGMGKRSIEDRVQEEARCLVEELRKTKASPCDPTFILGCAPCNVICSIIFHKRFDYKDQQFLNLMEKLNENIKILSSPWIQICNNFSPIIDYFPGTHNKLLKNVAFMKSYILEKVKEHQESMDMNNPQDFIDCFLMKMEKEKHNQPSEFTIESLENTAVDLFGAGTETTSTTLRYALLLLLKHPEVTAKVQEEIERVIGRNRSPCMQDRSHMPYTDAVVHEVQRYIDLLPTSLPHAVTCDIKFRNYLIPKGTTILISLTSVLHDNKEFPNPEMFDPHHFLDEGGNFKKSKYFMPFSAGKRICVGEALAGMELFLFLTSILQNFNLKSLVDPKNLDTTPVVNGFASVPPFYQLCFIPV
Experiment: CYP450, 2C9 Eurofins-Panlabs enzyme assay
Settings: compound concentration 10 uM
measurement_label: inhibition at 10 µM

Case `O=C(NCc1ncc(C(F)(F)F)cc1Cl)c1ccc2c(c1)C1(CCS(=O)(=O)CC1)[C@H](C1CC1)N2S(=O)(=O)c1ccc(F)cc1` , CYP2C9 (Homo sapiens), inhibition at 10 µM recorded as 32% (not active)

* * *

Biological target: L-type calcium channel, benzothiazepine site (Cav1.2 alpha-1C) (Homo sapiens)
Assay: Inhibition of Calcium Channel L-Type, Benzothiazepine at 10 µM in the Eurofins-Panlabs radioligand binding assay (Eurofins_assay_214510)
Set-up: ligand concentration 2 nM, non-specific ligand with concentration 10 µM Diltiazem, incubation time 3h, incubation temperature 4 °C
Conditions: male, Wistar, rat, rat whole brain preparation, probe [3H] Diltiazem, 2 nM; compound concentration 10 uM; target entry is the homologue from another species
measurement_label: inhibition at 3 h, 10 µM

Memo: O=C(NCc1ncc(C(F)(F)F)cc1Cl)c1ccc2c(c1)C1(CCS(=O)(=O)CC1)[C@H](C1CC1)N2S(=O)(=O)c1ccc(F)cc1 [BAY-784] , reported inhibition at 3 h, 10 µM: 29% (not active)

* * *

Target: D(1A) dopamine receptor (Homo sapiens, UniProt P21728)
Sequence (P21728 whole entry): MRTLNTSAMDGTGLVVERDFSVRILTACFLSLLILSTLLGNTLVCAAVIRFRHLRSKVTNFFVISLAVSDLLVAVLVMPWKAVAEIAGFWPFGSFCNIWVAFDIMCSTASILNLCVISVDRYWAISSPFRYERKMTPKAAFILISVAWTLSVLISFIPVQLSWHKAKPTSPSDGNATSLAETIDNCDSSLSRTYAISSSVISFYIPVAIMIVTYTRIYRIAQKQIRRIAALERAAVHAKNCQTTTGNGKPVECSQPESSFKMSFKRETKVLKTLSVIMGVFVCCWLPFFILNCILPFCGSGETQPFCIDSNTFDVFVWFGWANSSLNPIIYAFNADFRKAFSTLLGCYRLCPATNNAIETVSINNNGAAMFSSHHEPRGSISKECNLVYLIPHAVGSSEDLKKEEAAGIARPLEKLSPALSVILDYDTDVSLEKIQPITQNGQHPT
Test: GPCRScan assay: inhibition of D1
measurement_label: Ki (µM)
Numbers only, in µM.

Memo: `O=C(NCc1ncc(C(F)(F)F)cc1Cl)c1ccc2c(c1)C1(CCS(=O)(=O)CC1)[C@@H](C1CC1)N2S(=O)(=O)c1ccc(F)cc1` , reported Ki: 10

* * *

Target: UniProtKB P33261
Sequence (P33261 whole entry): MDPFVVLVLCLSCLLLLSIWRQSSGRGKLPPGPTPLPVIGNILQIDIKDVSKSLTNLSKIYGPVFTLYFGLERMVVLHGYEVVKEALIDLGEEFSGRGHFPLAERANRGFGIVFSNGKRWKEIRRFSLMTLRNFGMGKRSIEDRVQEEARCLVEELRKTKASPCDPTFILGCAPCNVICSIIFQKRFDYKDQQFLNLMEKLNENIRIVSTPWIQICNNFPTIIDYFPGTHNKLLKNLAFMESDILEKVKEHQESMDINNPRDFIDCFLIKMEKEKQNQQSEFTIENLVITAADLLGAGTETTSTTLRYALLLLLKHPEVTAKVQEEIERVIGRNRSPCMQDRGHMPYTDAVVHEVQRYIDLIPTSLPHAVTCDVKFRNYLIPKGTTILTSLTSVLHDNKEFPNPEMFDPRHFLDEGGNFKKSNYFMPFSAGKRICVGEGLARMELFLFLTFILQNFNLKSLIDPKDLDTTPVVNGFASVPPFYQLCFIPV
Test: CYP450, 2C19 Eurofins-Panlabs enzyme assay
Conditions: compound concentration 10 uM
measurement_label: inhibition at 10 µM

Memo: O=C(NCc1ncc(C(F)(F)F)cc1Cl)c1ccc2c(c1)C1(CCS(=O)(=O)CC1)[C@H](C1CC1)N2S(=O)(=O)c1ccc(F)cc1 [BAY-784] , reported inhibition at 10 µM: 36% (not active)
